Origin of the recorded values: the OligoGym collection

I'd be grateful if you could share measured remaining target (mRNA or protein) (fraction of control) for these entries.
Target: AKT3
Conditions: ASO; also: test concentration or dose not given here
These antisense oligonucleotides have a phosphorothioate backbone; sugars and methylation of C are not fully specified.

Req: API: value(readout= remaining target (mRNA or protein) (fraction of control), system= AKT3, query= TCTCATGGTCCTGGTTGT )
Resp: 0.57

Req: Now this one: GATCCTTTATCAAGAGCC
Resp: 0.4

Req: Now this one: GTTGTAGAGGCATCCATC
Resp: ≥ 1

Req: Now this one: TTTGCCACTGAAAAGTTG
Resp: ≥ 1

Req: Now this one: TTCCATTAATATTAATTC
Resp: ≥ 1

Req: Now this one: CTACATGAAATGTTCTCT
Resp: ≥ 1

Req: Now this one: AACCCAACCTTCTTTCAC
Resp: ≥ 1

Req: Now this one: TCTTCTTGCCTCTGCAGT
Resp: ≥ 1

Req: Now this one: ATTCTCTCCTCTTCTTGC
Resp: ≥ 1

Req: Now this one: GTCTCAGATGTTACTTGA
Resp: 0.71

Req: Now this one: TTTGTGAAGTTGGACTAC
Resp: ≥ 1

Req: Now this one: TCTTCCTCTCCTATATTA
Resp: ≥ 1

Req: Now this one: AAATGTGTTTGGCTTTGG
Resp: ≥ 1

Req: Now this one: TGTCCATTCTTCCCTTTC
Resp: ≥ 1

Req: Now this one: TAATTTCTTTTGCGTCAT
Resp: ≥ 1

###

Biological target: WWP1
Details: ASO
These antisense oligonucleotides have a phosphorothioate backbone; sugars and methylation of C are not fully specified.
property_name: remaining target (mRNA or protein) (fraction of control)

Req: Query (sequence): AACTTCAGGTCATGTGAAGT ; field requested: remaining target (mRNA or protein) (fraction of control)
Resp: ≥ 1

Req: Now this one: AAGGTTGTGGTCTCTCCCAT
Resp: ≥ 1

Req: Now this one: AGTATCAATAGATTCCAAAT
Resp: ≥ 1

Req: Now this one: TCCCATTGCGAGGATCTTTG
Resp: ≥ 1

Req: Now this one: CTGTTGGAAGGAATCTTCAA
Resp: ≥ 1

Req: Now this one: TTTCTGAGGAAGTCAGTATT
Resp: ≥ 1

Req: Now this one: CCTGGTGGCAAAGGTCCATA
Resp: ≥ 1

Req: Now this one: TATGATCAACAAAGTACCTT
Resp: ≥ 1

Req: Now this one: CATAAGCAATTTGTGGACCA
Resp: ≥ 1

Req: Now this one: ATGTCAACAGAAAAGTACAT
Resp: ≥ 1

Req: Now this one: TTTGTGTTATGATTCACAAA
Resp: 0.95

Req: Now this one: ATTCCAATTCTGCACTGGTA
Resp: ≥ 1

Req: Now this one: ATCATCAACTCTTCTTTCCC
Resp: 0.7

Req: Now this one: AACAGTAGTACTAGTGCAAT
Resp: ≥ 1

Req: Now this one: AAATAGTGCCATGGCAATAA
Resp: 0.98

Req: Now this one: CACCATAATCAAGTCCTTCT
Resp: 0.52

Req: Now this one: CTTTGTTCCCACCCTGATGG
Resp: 0.98

Req: Now this one: AATTTCCCAGCCTTCTGGCA
Resp: ≥ 1

Req: Now this one: ATTGATCTTTACATGACTAG
Resp: 0.83

###

Target: SRA1
Conditions: ASO
These antisense oligonucleotides have a phosphorothioate backbone; sugars and methylation of C are not fully specified.
I'd be grateful if you could share measured remaining target (mRNA or protein) (fraction of control) for these entries.

Req: Query (sequence): CCAGCAGATCCCTTCCTG ; field requested: remaining target (mRNA or protein) (fraction of control)
Resp: ≥ 1

Req: Now this one: ACCATCCACTGACTGACC
Resp: ≥ 1

Req: Now this one: CTTCCCTCATAGGTGGGT
Resp: ≥ 1

Req: Now this one: GGGTCAGGCCCAGTGGGA
Resp: ≥ 1

Req: Now this one: TTCCAAAGGTCTCAGCAC
Resp: 0.49

Req: Now this one: GGTTCTTCTCAGCTGTGG
Resp: 0.49

Req: Now this one: ACGCCAGAGGCAGGACCA
Resp: 0.55

Req: Now this one: CTCAGCTGTGGCTGCAGA
Resp: ≥ 1

Req: Now this one: GGGTCCGCCGGCCTGGGT
Resp: ≥ 1

Req: Now this one: CAGGGAGCAGGGCAGTCG
Resp: 0.35

Req: Now this one: CGGCAGTCTTCCAATGCC
Resp: ≥ 1

Req: Now this one: GCTGTGGCTGCAGATTTC
Resp: 0.48

Req: Now this one: CTCTGGCCCAGGTGGGAC
Resp: 0.55

Req: Now this one: CTCCATCAGTCGAGCCTC
Resp: ≥ 1

Req: Now this one: TTTCTGCAATTAATCTTT
Resp: ≥ 1

Req: Now this one: ATCTGCTGCGTCCCACCG
Resp: 0.9

Req: Now this one: CCTGCTGGAAGCCTGGTA
Resp: ≥ 1

Req: Now this one: ACCCTCTTGGTAAGCAGC
Resp: ≥ 1

Req: Now this one: CCTGGGTCCGCCGGCCTG
Resp: 0.86

Req: Now this one: AGGCCCAGGAGAAGTCTC
Resp: 0.61

Req: Now this one: TGGTAAGCAGCGAGCGCC
Resp: 0.74

Req: Now this one: GTATGGTATGGTTCTTCT
Resp: 0.94

Req: Now this one: ACATACCTGCTTCCTTGT
Resp: ≥ 1

Req: Now this one: TGCTGCGTCCCACCGGTG
Resp: 0.27

Req: Now this one: CTTTCCTCCAGCCCACTG
Resp: 0.36

Req: Now this one: CAGCACATCCTCCATCAG
Resp: 0.61

Req: Now this one: GTCGGCTGATGTCATCAC
Resp: ≥ 1

Req: Now this one: GGCCCAGGAGAAGTCTCT
Resp: ≥ 1

Req: Now this one: GGGAGCCTTACTTGAAGG
Resp: 0.88

Req: Now this one: ACATGGTCAACCATGAGG
Resp: 0.54

Req: Now this one: ACACATGAACTCCCTCTG
Resp: 0.77

###

Molecular target: ETS2
Conditions: ASO
These antisense oligonucleotides have a phosphorothioate backbone; sugars and methylation of C are not fully specified.
property_name: remaining target (mRNA or protein) (fraction of control)
Could you keep your reply to the number by itself?

Req: Query (sequence): TGGCTTATTGAGGCAGAG ; field requested: remaining target (mRNA or protein) (fraction of control)
Resp: 0.94

Req: Now this one: GGGTCACTCCTCTCTTGG
Resp: 0.75

Req: Now this one: GAAGCCACTGGCATACCT
Resp: 0.64

Req: Now this one: GGGACCCATCAAAGGTGT
Resp: 0.66

Req: Now this one: GGCTGGCGCTTGAGTGTC
Resp: 0.7

Req: Now this one: TTCTTTGGAATGCCCAGG
Resp: 0.93

Req: Now this one: GGAACGGAGGTGAGGTGT
Resp: 0.61

Req: Now this one: GGGTAATTCTGTGTCTGC
Resp: 0.96

###

Target: PYGL
Settings: ASO
These antisense oligonucleotides have a phosphorothioate backbone; sugars and methylation of C are not fully specified.
So basically, if remaining target (mRNA or protein) (fraction of control) comes in under 0.3 it's met, and if it's 0.3 or more it's not met.

Req: Hello, I'm reviewing records and need to know if remaining target (mRNA or protein) (fraction of control) of TCATGATAAAATAGCATGTT is below 0.3. Could you check?
Resp: not met

Req: Now this one: TCCAGCGCCCCACCAGGTGG
Resp: not met

Req: Now this one: TCATATTGCCTGTCCCCGAG
Resp: met

Req: Now this one: ATCAGAGACATCCTTCTCAG
Resp: not met

Req: Now this one: TCTGTCAGCGGTTCGCCCAT
Resp: not met

Req: Now this one: ATCTGTGGCTGGAATGACTT
Resp: not met

Req: Now this one: GCCGTATCCATAGGCTGCAA
Resp: not met

Req: Now this one: ATCACCCAGGAAGCTGTGGA
Resp: not met

Req: Now this one: CCCATGTAAAATTCCAGAGA
Resp: not met

Req: Now this one: TCCAACATTAAAGTCTCTGA
Resp: not met

Req: Now this one: CGGGCTGCGCAGAGAGCTGG
Resp: not met

Req: Now this one: CCGCCCCGCCGCGCCAGGAG
Resp: not met

Req: Now this one: AGGATGGGTTGATCTTCACT
Resp: not met

Req: Now this one: GGGCGGGACTTCTCCCAAGG
Resp: not met

Req: Now this one: GCGCGAAGTAGTAGTCGCGG
Resp: not met

Req: Now this one: ATTTTGCAGACCGAGGTTGA
Resp: not met

Req: Now this one: CCACATTGGCCCCATCCATG
Resp: met

Req: Now this one: TGCCACGTTCTCCACGCCCA
Resp: met

Req: Now this one: TTGTCAATTTGATCAATGAC
Resp: not met

Req: Now this one: ACGGGCCAGCGCTCCAGGGC
Resp: not met

Req: Now this one: TTCCAACCATAGGGTCATTG
Resp: met

Req: Now this one: TGGAGCCAAACTTGGAGGCT
Resp: not met

Req: Now this one: CCCCATTCCCAGAGATACTC
Resp: not met
